Target: T1, Biotinylated human TSLP (hTSLP(29-159)-Avi) (human, biotinylated (C-terminal Avi-tag))
T1 construct: also called thymic stromal lymphopoietin
T1 sequence (chain, as listed by the source limits assumed): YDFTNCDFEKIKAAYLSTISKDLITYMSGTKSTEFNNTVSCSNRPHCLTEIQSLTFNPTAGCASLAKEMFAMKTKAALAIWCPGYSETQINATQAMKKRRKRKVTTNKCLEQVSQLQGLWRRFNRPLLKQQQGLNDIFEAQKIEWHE
Experiment: SPR, biotinylated hTSLP on streptavidin chip, peptide injected
*1 amine or outer side, *2 acyl side, *3 side chain or, on linkers, in order; H or OH if unused. Bridges are numbered along the chain shown (N, C = ends). Where no end group is shown, it is not given here. TATA = O=C(CC[*:1])N1CN(C(=O)CC[*:2])CN(C(=O)CC[*:3])C1
PROPERTY MEASURED: Kd (nM)

{"BINDER": "ANDCVWHWEYDCWLDCA (linker 4-12-16 via TATA; not fully specified (C-terminus)) [Example 220]", "VAL": 340}
{"BINDER": "CDWHWEYDCWLSCANSEFE (linker 1-9-13 via TATA; not fully specified (C-terminus)) [Example 227]", "VAL": 740}
{"BINDER": "SQECQWNWTYDCWLGCA (linker 4-12-16 via TATA) [Example 203]", "VAL": 320}
